# Test system: Jurkat
# Assay: Inhibition of calcium influx in jurkat (T cells).
# Assay type: functional, cell-based
# Condition Description: Homo sapiens
Readout Label: IC50 (µM)

Record excerpt, results attached:
>  <Compound>
COc1ccc(CCN2CCC[C@H]2COC(c2ccc(OC)cc2)c2ccc(OC)cc2)cc1

>  <Reported>
15

$$$$
>  <Compound>
COc1ccc(CCN2CCCC(COC(c3ccc(Cl)cc3)c3ccc(Cl)cc3)C2)cc1 (stereo not given)

>  <Reported>
10

$$$$

[P] COc1ccccc1CCN1CCC[C@H]1COC(c1ccccc1)c1ccc(Cl)cc1 (stereo not given in full)
[Q] COc1ccc(CCN2CCC[C@H]2COC(c2ccc(Cl)cc2)c2ccc(Cl)cc2)cc1
[R] COc1ccc(CCN2CCC[C@H]2COC(c2ccccc2)c2ccc(Cl)c(Cl)c2)cc1 (stereo not given in full)
[S] COc1ccc(CCN2CCCC(COC(c3ccccc3)c3ccccc3)C2)cc1 (stereo not given)
Sort by IC50, descending. The response must list the labels following the requested ordering.
S, Q, R, P

[a] COc1ccc(CCN2CCC(COC(c3ccccc3)c3ccc(Cl)cc3)CC2)cc1 (stereo not given)
[b] COc1ccc(CCN2CCCCC2COC(c2ccccc2)c2ccc(Cl)cc2)cc1 (stereo not given)
Compare a and b and name the one whose reported IC50 is smaller. // respond with label for picked entry
b
(b: 3 µM, a: 7 µM)

[a] COc1ccc(CCN2CCC(COC(c3ccc(Cl)cc3)c3ccc(Cl)cc3)CC2)cc1
[b] COc1ccc(CN2CCC[C@H]2COC(c2ccccc2)c2ccc(Cl)cc2)cc1 (stereo not given in full)
Select one: a or b . Criterion: greater recorded IC50. // respond with label for picked entry
a
(a: 10 µM, b: 2 µM)

All values here come from ChEMBL document CHEMBL1146797.
